target: Cytochrome P450 3A4 (Homo sapiens, UniProt P08684);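 also: CYP3A4 tested as one member of a cytochrome P450 panel screen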
Sequence (P08684 whole entry): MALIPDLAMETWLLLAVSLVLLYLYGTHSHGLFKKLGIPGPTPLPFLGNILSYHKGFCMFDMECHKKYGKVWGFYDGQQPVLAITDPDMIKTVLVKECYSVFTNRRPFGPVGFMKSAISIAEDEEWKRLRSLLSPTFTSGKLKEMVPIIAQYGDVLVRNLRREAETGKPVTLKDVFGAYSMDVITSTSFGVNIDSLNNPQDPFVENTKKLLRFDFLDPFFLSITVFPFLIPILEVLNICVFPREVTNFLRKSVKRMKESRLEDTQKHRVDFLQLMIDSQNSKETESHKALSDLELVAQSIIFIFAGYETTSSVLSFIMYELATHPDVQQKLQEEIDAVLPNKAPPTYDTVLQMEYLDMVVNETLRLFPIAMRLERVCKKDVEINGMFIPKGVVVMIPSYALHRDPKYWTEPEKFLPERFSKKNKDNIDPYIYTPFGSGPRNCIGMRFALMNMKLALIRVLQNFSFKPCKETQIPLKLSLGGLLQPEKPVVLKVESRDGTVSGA
# key: entry, value: AC50

// solved cases for AC50 follow
Cc1ccc(S(=O)(=O)N[C@H]2COC(=O)[C@@H](C)COC(=O)[C@H](C)NC(=O)C/C=C\[C@H]2C)cc1; 3.98 µM (inconclusive)
COc1ncc2nc(C)c(=O)n(CCc3ccccc3)c2n1; 15.8 µM (inconclusive)
OCCN1CCN(CCC=C2c3ccccc3Sc3ccc(Cl)cc32)CC1; 12.6 µM (inconclusive)
Cc1ccc(S(=O)(=O)NCc2ccccc2)cc1; 31.6 µM (inconclusive)

Kindly consider the entry below.
The molecule listed as CS(=O)(=O)N1CCC2(CC1)CN(C(=O)Nc1cccc(C#N)c1)C2 has a reported AC50 of 0.0251 µM (inconclusive)
